Target: T1, CBD-toxin B-Fc (Clostridium difficile, UniProt P18177 1851-2366)
T1 construct: also called CBD-B; C-term Toxin B
T1 sequence (P18177 1851-2366 limits assumed): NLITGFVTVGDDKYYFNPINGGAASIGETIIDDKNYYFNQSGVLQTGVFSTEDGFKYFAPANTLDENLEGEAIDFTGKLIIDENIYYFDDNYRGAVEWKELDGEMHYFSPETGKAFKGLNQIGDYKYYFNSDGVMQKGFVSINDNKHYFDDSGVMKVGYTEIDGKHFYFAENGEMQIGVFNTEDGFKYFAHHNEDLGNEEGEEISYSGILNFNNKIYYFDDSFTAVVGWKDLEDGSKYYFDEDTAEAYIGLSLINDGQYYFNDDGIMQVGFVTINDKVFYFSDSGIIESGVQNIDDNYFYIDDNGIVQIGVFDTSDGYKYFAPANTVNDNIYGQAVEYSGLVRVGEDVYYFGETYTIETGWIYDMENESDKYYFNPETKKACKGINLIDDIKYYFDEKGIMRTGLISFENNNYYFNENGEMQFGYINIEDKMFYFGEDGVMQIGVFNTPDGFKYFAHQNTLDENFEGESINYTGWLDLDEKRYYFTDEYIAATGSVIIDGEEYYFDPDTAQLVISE
Assay: SPR Biacore, mAb capture and CBD-Fc capture formats

binder	binding result
H2M3123N (antibody, V domains shown, also called H2aM3123N; H1M3123N) VH: DVQLVESGGDFVQPGGSLRLSCAASGVAFNDYEMNWIRQAPGKRLEWISHIDSSGTIIYYADSVKGRFTISRDSAKNSLFLQMDSLRAEDTAVYYCARERYSHYGYYYFGMDVWGQGTTVTVSS VL: DIQMTQSPSTLSASVGDRVTITCRASQNIDNWLAWYQQKTGKAPNLLIYKASTLESGVPSRFSGSGSGTEFTLTIISLQPDDFATYYCQEYNTYSRTFGQGTKVEIK	no binding
H1H3347P (antibody, V domains shown) VH: EVQLVESGGGLVQPGGSLRLSCVASGFTFTSYAMSWVRQAPGRGLQWVSAIGGSGDSIYYADSVKGRFTISRDNSKNTLYLQMDSLRAEDTAVYYCARGWELLNYWGQGTLVTVSS VL: DIQMTQSPSSLSASVGDRVTITCRASQDIGNFLAWFQQKPGKAPKSLIYAASSLKSGVPSKISGSGSGTDFTLTINSLQPEDFATYYCQQYNIYPPTFGPGTKVDIKR	no binding
H2M3124N (antibody, V domains shown, also called H2aM3124N; H1M3124N) VH: EIQLIESGGDMVQPGGSLRLSCAASGISLNSYEMNWVRQTPGMGLEWISHISSSGTSIYYANSVKGRFTIFRDSAKNSLLLQMNSLRAEDTAIYYCARERYDHSGYYYLGMDVWGLGTTVTVSS VL: DIQMTQSPSTLSASLGDRVTITCRASQNIDNWMAWYQQKVGKAPKLLIYRASTLETGVPSRFGGSGFGTEFTLTISSLQPGDFATYYCQEYNSYFRTFGQGTKVEIK	no binding
H2M3121N (antibody, V domains shown, also called H2aM3121N; H1M3121N) VH: EVQLVESGGDLVQPGGSLRLSCAASGVTFRTYEMNWVRQAPGKGLEWISHISSSGDIIYYTKSVKGRFTISRDNAKNSLFLQMTSLRAEDTAVYYCARERYSQYGYYYFGMDVWGQGTTVTVSS VL: DIQMTQSPSTLSASIGDRVTITCRASQNTDKWMAWYQQKAGKAPKLLIYKASILESGVPSRFSGSGSGTEFTLTISSLQPDDFATYYCQEYNTYFRAFGQGTKVETR	no binding
